system: PPARg:RXRa DBDmut IVT, anti-RXR (DBD mutation: RXRa K156A/R161A, NR concentration 270 nM, RXRa partner concentration 90 nM); assay: PBM binding z-score (relative to random genomic background probes); higher = stronger binding; sequences stand for … in GC…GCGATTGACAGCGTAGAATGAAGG
Reported PBM binding z-score values for the following sequences.
Simply state the number, no unit and no words.

The cases that follow already have their PBM binding z-score on record.
- polymerSequence: "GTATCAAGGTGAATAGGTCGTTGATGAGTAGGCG"
  PBM binding z-score: 3.31
- polymerSequence: "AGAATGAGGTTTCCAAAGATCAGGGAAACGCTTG"
  PBM binding z-score: 0.298

In: Would you mind telling me what PBM binding z-score value was observed for `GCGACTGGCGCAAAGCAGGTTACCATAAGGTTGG` ?
Out: -0.223

In: I have this sequence here, `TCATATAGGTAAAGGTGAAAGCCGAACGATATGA` , and I need its recorded PBM binding z-score.
Out: 3.94

In: Query: PBM binding z-score; subject: `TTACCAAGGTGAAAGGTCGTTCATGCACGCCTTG`
Out: 2.97

In: Name the reported PBM binding z-score value associated with the sequence `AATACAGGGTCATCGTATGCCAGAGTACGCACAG`
Out: 2.86

In: Need PBM binding z-score of `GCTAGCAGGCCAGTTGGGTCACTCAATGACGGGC` , thanks.
Out: 0.163

In: I'd like to know its PBM binding z-score. The sequence in question is `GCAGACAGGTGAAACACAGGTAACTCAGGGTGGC`
Out: 0.926

In: Data request, read-out PBM binding z-score, for `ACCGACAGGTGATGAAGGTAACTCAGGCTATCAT`
Out: 0.339

In: Please report the recorded PBM binding z-score for `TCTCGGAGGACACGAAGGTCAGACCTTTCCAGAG` .
Out: 1.65

In: What does the data say about its PBM binding z-score? Entry: `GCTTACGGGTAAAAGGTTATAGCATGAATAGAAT`
Out: 1.1

In: Sample `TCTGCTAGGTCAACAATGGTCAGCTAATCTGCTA` — what was its PBM binding z-score?
Out: 4.05

In: Name the reported PBM binding z-score value associated with the sequence `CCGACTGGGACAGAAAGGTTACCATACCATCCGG`
Out: 0.593

In: Recorded PBM binding z-score for `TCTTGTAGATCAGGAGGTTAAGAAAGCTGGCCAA` , please?
Out: 1.51

In: Consider the sequence `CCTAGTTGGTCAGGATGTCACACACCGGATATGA` and give its measured PBM binding z-score.
Out: 0.536

In: # PBM binding z-score lookup, item `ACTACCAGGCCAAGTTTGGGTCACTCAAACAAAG`
Out: 1.12

In: What value of PBM binding z-score has been reported for the following sequence? `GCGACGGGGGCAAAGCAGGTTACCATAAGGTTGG`
Out: 2.39

In: State the recorded PBM binding z-score for this entry: `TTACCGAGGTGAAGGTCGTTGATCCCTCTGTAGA`
Out: 1.78

In: Looking for the measured PBM binding z-score of `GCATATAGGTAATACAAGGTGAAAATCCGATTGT` , can you help?
Out: 3.55

====

tested on: PPARg:RXRa (NR concentration 180 nM, RXRa partner concentration 90 nM); assay: PBM binding z-score (relative to random genomic background probes); higher = stronger binding; sequences stand for … in GC…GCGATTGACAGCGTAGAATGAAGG
The recorded PBM binding z-score of each item maps onto one of these classes: interval 1 (below 1), interval 2 (1 to below 5), interval 3 (5 or more)

Worked cases, answers included:
- polymerSequence: "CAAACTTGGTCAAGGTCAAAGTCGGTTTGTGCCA"
  answerLabel: "interval 2"
- polymerSequence: "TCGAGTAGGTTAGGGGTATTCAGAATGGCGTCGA"
  answerLabel: "interval 2"
- polymerSequence: "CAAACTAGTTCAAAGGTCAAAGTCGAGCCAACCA"
  answerLabel: "interval 3"
- polymerSequence: "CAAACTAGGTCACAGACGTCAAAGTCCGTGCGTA"
  answerLabel: "interval 3"
- polymerSequence: "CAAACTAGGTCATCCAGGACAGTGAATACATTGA"
  answerLabel: "interval 3"
- polymerSequence: "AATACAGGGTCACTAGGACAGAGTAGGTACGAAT"
  answerLabel: "interval 3"
- polymerSequence: "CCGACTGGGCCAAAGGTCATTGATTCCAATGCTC"
  answerLabel: "interval 3"
- polymerSequence: "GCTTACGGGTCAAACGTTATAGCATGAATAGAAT"
  answerLabel: "interval 3"

In: Bin this entry: `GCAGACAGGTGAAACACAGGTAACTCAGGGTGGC`
Out: interval 1

In: Hey, which category is `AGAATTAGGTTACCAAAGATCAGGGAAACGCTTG` in, do you know?
Out: interval 2

====

system: VDR:RXRa (NR concentration 270 nM, RXRa partner concentration 90 nM); assay: PBM binding z-score (relative to random genomic background probes); higher = stronger binding; sequences stand for … in GC…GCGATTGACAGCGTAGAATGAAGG
// bucketize PBM binding z-score: lower segment (below 0.3), middle segment (0.3 to below 3), upper segment (3 or more)

Solved entries:
- polymerSequence: "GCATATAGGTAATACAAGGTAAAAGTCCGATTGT"
  answerLabel: "lower segment"
- polymerSequence: "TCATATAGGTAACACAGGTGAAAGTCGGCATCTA"
  answerLabel: "middle segment"
- polymerSequence: "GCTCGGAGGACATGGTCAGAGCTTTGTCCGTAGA"
  answerLabel: "lower segment"
- polymerSequence: "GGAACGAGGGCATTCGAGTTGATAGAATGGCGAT"
  answerLabel: "upper segment"
- polymerSequence: "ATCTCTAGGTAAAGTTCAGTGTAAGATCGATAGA"
  answerLabel: "middle segment"
- polymerSequence: "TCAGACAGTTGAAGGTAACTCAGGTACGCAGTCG"
  answerLabel: "middle segment"
- polymerSequence: "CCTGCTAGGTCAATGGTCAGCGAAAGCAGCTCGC"
  answerLabel: "middle segment"
- polymerSequence: "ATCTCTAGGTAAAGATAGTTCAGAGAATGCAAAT"
  answerLabel: "middle segment"

In: Please report the category associated with `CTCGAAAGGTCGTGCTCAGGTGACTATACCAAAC` , nothing else.
Out: upper segment

In: Please classify: `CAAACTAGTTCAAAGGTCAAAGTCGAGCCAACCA`
Out: upper segment

In: Which bin should I file `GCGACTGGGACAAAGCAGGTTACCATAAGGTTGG` under?
Out: lower segment

In: Sort into band: `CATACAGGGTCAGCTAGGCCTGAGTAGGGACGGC`
Out: middle segment

In: Bin? `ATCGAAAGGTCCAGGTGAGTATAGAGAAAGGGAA`
Out: lower segment

In: Assign a bin to `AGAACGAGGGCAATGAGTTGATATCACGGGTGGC`
Out: upper segment

In: Hi, small favor: classify `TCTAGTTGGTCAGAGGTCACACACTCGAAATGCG` by its PBM binding z-score when you get a moment.
Out: upper segment

In: Sort `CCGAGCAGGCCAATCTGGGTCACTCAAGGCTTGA` into one of the categories.
Out: lower segment

In: State the band of `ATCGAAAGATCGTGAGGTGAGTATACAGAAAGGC`
Out: lower segment

In: Lab log: `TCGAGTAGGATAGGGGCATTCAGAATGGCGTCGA` — assign PBM binding z-score category
Out: lower segment

In: Sort into band: `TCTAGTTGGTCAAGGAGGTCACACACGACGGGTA`
Out: upper segment

In: GET /class?item= `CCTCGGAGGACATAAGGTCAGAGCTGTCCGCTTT`
Out: middle segment

In: Into which bin does this sequence go? `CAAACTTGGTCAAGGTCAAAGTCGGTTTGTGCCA`
Out: upper segment

In: Sort `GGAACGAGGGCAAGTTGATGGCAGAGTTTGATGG` into one of the categories.
Out: middle segment

In: Each sequence maps to one class by PBM binding z-score. Which class for `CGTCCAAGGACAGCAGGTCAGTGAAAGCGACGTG` ?
Out: lower segment

In: Please classify: `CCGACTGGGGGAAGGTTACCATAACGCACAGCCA`
Out: middle segment

====

test system: LXRa:RXRa (NR concentration 270 nM, RXRa partner concentration 90 nM); assay: PBM binding z-score (relative to random genomic background probes); higher = stronger binding; sequences stand for … in GC…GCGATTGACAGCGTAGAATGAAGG
property: PBM binding z-score

These recorded examples may help you get a feel for the data.
- polymerSequence: "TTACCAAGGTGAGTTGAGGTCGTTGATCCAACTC"
  PBM binding z-score: 2.03
- polymerSequence: "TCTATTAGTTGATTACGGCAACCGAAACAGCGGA"
  PBM binding z-score: 0.638

Now for a further sequence.
In: May I ask what PBM binding z-score has been recorded for `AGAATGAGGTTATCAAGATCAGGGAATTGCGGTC` ?
Out: 1.37

These data points were gathered from the supplement of paper PMC6555819.
